Values from the supplement of paper PMC10065799

TARGET_DESC: Hck (UniProt P08631)
Sequence (P08631 whole entry, looked up): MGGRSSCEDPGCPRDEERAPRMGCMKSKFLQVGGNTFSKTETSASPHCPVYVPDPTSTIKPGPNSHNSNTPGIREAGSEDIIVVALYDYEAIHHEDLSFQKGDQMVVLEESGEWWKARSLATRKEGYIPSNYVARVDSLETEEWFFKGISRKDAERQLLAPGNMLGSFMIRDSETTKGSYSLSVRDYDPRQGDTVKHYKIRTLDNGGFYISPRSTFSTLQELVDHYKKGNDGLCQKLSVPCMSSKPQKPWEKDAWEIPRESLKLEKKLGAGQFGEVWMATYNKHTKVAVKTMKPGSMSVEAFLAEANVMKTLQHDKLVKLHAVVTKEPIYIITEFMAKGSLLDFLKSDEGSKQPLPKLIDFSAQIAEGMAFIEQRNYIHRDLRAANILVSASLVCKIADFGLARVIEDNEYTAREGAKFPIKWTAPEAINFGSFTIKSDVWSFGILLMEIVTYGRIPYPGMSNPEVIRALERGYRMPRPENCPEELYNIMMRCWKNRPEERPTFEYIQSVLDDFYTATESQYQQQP
PROTOCOL_TEXT: phosphorylation enrichment, bacterial display (enrichment ratio); higher = better substrate or ligand; peptides without Tyr show the background;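 also: 11-residue human phosphosite peptides and single-mutation variants displayed on the E. coli surface, counted by deep sequencing, each peptide's frequency after selection divided by its frequency in the unselected input library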;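 also: frequency after pTyr selection over input frequency; kinase dosed for 20-30% of maximal phosphorylation in three min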
MEASUREMENT_KIND: phosphorylation enrichment
The answer should be a number; do not append a unit.

Sample answers from the record:
Response field phosphorylation enrichment (Hck (UniProt P08631)) for item RRSQSYIPTSG [PLEKHA2_Y185] : 0.473

Response field phosphorylation enrichment (Hck (UniProt P08631)) for item INMKKYCKKDF [NTN1_Y490_YF] : 0.437

Response field phosphorylation enrichment (Hck (UniProt P08631)) for item SGLDSYVRSLP [TRAPPC1_Y133_R129G] : 0.438

Next:
Response field phosphorylation enrichment (Hck (UniProt P08631)) for item VFSIDYFRVGG [NTRK2_Y706_T704I_YF] : 0.588

Response field phosphorylation enrichment (Hck (UniProt P08631)) for item PVDVAYRRGYF [PLEC_Y2967] : 0.587

Response field phosphorylation enrichment (Hck (UniProt P08631)) for item RHCSGYVLIAM [EFR3A_Y73_R70C] : 0.472

Response field phosphorylation enrichment (Hck (UniProt P08631)) for item ADARMYGDLPW [PLP1_Y207_V209D] : 3.49

Response field phosphorylation enrichment (Hck (UniProt P08631)) for item NGRQCYSCKGN [PLAUR_Y217] : 0.336

Response field phosphorylation enrichment (Hck (UniProt P08631)) for item KVGNEYITKGQ [MYH7_Y410_V411I] : 0.399

Response field phosphorylation enrichment (Hck (UniProt P08631)) for item QLHRKYCLSPR [HJURP_Y445_E444K] : 0.533

Response field phosphorylation enrichment (Hck (UniProt P08631)) for item PLEGEYFTLQI [TP53_Y327_D324E] : 4.86

Response field phosphorylation enrichment (Hck (UniProt P08631)) for item SQSPHYFRSGR [GPATCH8_Y1038] : 0.389

Response field phosphorylation enrichment (Hck (UniProt P08631)) for item DNACQYMLTDR [MYH7_Y164_Y162C] : 0.567

Response field phosphorylation enrichment (Hck (UniProt P08631)) for item DDPRRYQKYGY [OAS1_Y362] : 0.499

Response field phosphorylation enrichment (Hck (UniProt P08631)) for item AMGAVYQAAAL [HYOU1_Y421] : 3.19

Response field phosphorylation enrichment (Hck (UniProt P08631)) for item GIVEDYRPPFY [ACVRL1_Y421] : 0.427

Response field phosphorylation enrichment (Hck (UniProt P08631)) for item FHIDHYLGKEM [G6PD_Y202_R198H_YF] : 0.503

Response field phosphorylation enrichment (Hck (UniProt P08631)) for item TGEKPYECVQC [ZNF24_Y335] : 0.521

Response field phosphorylation enrichment (Hck (UniProt P08631)) for item GKMSQYLESMQ [CYB5R3_Y130] : 0.494

Response field phosphorylation enrichment (Hck (UniProt P08631)) for item FSCLPYRRLAY [SLC52A2_Y305_G306R] : 0.663

Response field phosphorylation enrichment (Hck (UniProt P08631)) for item EARRVYRDIIH [ALDH5A1_Y175_G176R] : 0.325

Response field phosphorylation enrichment (Hck (UniProt P08631)) for item HGEAFYSEVKP [PAK5_Y182_YF] : 4.38

Response field phosphorylation enrichment (Hck (UniProt P08631)) for item SFLFRYADDSF [RAB3C_Y50] : 0.525
